I'd appreciate it if you could supply inhibition at 10 µM values for the items below.
- system.name: human GABAA receptor α1β2 and γ2 subunits (Homo sapiens, UniProt P14867+P18507+P47870)
- Construct: expressed in transfected cells
- Sequence (P14867 28-456): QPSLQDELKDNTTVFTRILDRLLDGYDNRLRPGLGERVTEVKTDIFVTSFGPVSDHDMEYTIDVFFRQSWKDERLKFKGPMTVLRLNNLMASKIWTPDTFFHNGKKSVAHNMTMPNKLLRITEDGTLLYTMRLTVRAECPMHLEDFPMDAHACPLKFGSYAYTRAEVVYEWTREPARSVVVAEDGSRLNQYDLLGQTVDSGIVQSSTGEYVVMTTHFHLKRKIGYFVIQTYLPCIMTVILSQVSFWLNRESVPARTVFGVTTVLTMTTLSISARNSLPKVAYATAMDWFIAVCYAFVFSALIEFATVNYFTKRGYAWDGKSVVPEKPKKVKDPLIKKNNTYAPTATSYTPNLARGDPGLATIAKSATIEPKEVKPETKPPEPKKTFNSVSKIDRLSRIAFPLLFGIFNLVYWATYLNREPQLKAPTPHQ
- Sequence (P47870 25-512 limits assumed): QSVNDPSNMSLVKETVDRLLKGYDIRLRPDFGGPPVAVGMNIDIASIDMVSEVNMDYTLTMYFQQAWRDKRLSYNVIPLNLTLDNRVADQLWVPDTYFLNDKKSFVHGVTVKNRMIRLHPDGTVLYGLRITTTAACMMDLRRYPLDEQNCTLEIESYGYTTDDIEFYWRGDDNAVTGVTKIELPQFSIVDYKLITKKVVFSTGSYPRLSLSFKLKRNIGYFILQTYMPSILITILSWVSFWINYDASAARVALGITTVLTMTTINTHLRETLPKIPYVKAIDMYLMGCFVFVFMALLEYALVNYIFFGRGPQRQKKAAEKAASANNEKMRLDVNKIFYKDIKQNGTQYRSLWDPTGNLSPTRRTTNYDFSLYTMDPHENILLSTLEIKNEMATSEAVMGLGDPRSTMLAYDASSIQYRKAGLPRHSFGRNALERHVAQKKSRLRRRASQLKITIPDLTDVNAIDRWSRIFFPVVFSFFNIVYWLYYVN
- Sequence (P18507 40-475): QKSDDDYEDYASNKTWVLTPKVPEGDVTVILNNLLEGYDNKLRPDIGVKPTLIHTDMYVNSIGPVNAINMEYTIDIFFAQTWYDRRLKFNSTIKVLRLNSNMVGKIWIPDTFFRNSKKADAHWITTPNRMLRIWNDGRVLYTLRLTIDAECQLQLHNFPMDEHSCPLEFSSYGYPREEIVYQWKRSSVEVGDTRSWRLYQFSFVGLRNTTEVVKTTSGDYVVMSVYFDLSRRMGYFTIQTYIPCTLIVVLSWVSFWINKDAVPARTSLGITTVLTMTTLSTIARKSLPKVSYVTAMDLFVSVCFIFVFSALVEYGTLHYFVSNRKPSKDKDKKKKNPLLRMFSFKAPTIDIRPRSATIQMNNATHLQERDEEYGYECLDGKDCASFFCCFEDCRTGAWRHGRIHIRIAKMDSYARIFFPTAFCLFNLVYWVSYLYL
- assay.info: Automated patch clamp studies on the GABAA receptor cells
- Format: cell-based
- measurement.context: CHO-K1, 10 μM compound, 15 μM GABA, Table B
Give just the number in %; leave the unit off.

Form entry - test system: human GABAA receptor α1β2 and γ2 subunits (Homo sapiens, UniProt P14867+P18507+P47870); read-out: inhibition at 10 µM; compound: COc1ccc(C#N)c(CC(=O)N2CC[C@@H]3[C@H](CCC[C@H]3C(O)C(F)F)[C@@H]2C)c1Cl (single isomer, unassigned) 8.6

Value wanted: inhibition at 10 µM (human GABAA receptor α1β2 and γ2 subunits (Homo sapiens, UniProt P14867+P18507+P47870)) of entry C[C@H]1[C@H]2CCC[C@@H]([C@H](O)C(F)(F)F)[C@@H]2CCN1C(=O)Cc1c(Cl)cc(F)c2[nH]nc(Cl)c12 -8

Quick check: inhibition at 10 µM on human GABAA receptor α1β2 and γ2 subunits (Homo sapiens, UniProt P14867+P18507+P47870), item C[C@H]1[C@H]2CCC[C@@H]([C@H](O)C(F)(F)F)[C@@H]2CCN1C(=O)Cc1c(Cl)cnc(CO)c1Cl ? 9.6

Request: inhibition at 10 µM, test system human GABAA receptor α1β2 and γ2 subunits (Homo sapiens, UniProt P14867+P18507+P47870), entry COc1ccc(C#N)c(CC(=O)N2CC[C@H]3[C@H]([C@H](O)C(F)(F)F)CCC[C@@H]3[C@@H]2C)c1Cl 11.2
